# Tested on: Ceratobasidium cereale
# MEASUREMENT DESCRIPTION: Antifungal activity against Rhizoctonia cerealis assessed as reduction in growth mycelium growth rate method relative to control
# Assay type: functional, organism-based
MEASUREMENT NAME: EC50 (µg/mL)
Could you give me the number in µg/mL? Just the number is fine.

Consider the worked cases shown below.
STRUCTURE NOTATION: COc1cc(OC)nc(Sc2ccc(Cl)cc2C(=O)O)n1
EC50 (µg/mL): 14.1

STRUCTURE NOTATION: COc1cc(OC)nc(Sc2ccc(C(=O)O)cc2F)n1
EC50 (µg/mL): 11.8

STRUCTURE NOTATION: COc1cc(OC)nc(Sc2ccc(C(=O)O)cc2Cl)n1
EC50 (µg/mL): 9.2

STRUCTURE NOTATION: COc1nc(OC)nc(Oc2cccc(I)c2)n1
EC50 (µg/mL): 10.9

STRUCTURE NOTATION: N#Cc1c(Cl)c(Cl)c(Cl)c(C#N)c1Cl
EC50 (µg/mL): 5.3

STRUCTURE NOTATION: COc1nc(OC)nc(Sc2ccc(C#N)cc2Br)n1
EC50 (µg/mL): 12.4

STRUCTURE NOTATION: COc1cc(OC)nc(Sc2ccc(C(=O)O)cc2Br)n1
EC50 (µg/mL): 11.4

Request: Supply reported EC50 belonging to this compound: COc1cc(OC)nc(Sc2cccc(Cl)c2C(=O)O)n1
Response: 15.4

----------
# Tested on: Arabidopsis thaliana
# MEASUREMENT DESCRIPTION: Inhibition of Arabidopsis thaliana AHAS catalytic subunit using pyruvate as substrate at 10 uM measured after 30 mins by colorimetric method relative to control
MEASUREMENT NAME: inhibition (%)
Answer format: numeric, % implied, no suffix.

COMPOUND: COc1cc(OC)nc(Sc2ccc(C#N)c(C(F)(F)F)c2)n1
UNITS TEXT: %
inhibition: 51.2

Request: Identify the reported inhibition for the following entry. COc1nc(OC)nc(Oc2cccc(I)c2)n1
Response: 8.9

Request: Please list inhibition recorded for the compound COc1nc(OC)nc(Sc2ccc(Br)cc2C(=O)O)n1
Response: 12

Request: For COc1nc(OC)nc(Sc2ccc(C(=O)O)c(C(F)(F)F)c2)n1 , write its inhibition.
Response: 21.8

Request: Write down inhibition measured for item COc1nc(OC)nc(Sc2cccc(I)c2C#N)n1
Response: 51.6

----------
# Tested on: Candida albicans
# MEASUREMENT DESCRIPTION: Inhibition of Candida albicans AHAS catalytic subunit at 100 uM using pyruvate as substrate measured after 30 mins by colorimetric method relative to control
Please enter yes where inhibition is greater than or equal to 50%, and no where it is lower.

Observe how each entry below is paired with its result.
COMPOUND: COc1cc(OC)nc(Sc2ccc(C(=O)O)c(C(F)(F)F)c2)n1
TESTED SYSTEM: Candida albicans
GROUP LABEL: no

COMPOUND: COc1cc(OC)nc(Sc2ccc(C(=O)O)cc2C(=O)O)n1
TESTED SYSTEM: Candida albicans
GROUP LABEL: no

COMPOUND: COc1cc(OC)nc(Sc2ccc(C(F)(F)F)cc2C#N)n1
TESTED SYSTEM: Candida albicans
GROUP LABEL: no

COMPOUND: CCOc1ccccc1OS(=O)(=O)NC(=O)Nc1nc(OC)cc(OC)n1 [ETHOXYSULFURON]
TESTED SYSTEM: Candida albicans
GROUP LABEL: yes

COMPOUND: COc1nc(OC)nc(Sc2ccc(C(=O)O)c(C(F)(F)F)c2)n1
TESTED SYSTEM: Candida albicans
GROUP LABEL: no

COMPOUND: COc1cc(OC)nc(Sc2cc(C(F)(F)F)ccc2C#N)n1
TESTED SYSTEM: Candida albicans
GROUP LABEL: no

COMPOUND: COc1cc(OC)nc(Sc2ccc(F)cc2C(=O)O)n1
TESTED SYSTEM: Candida albicans
GROUP LABEL: yes

COMPOUND: COc1nc(OC)nc(Sc2ccc(C(=O)O)cc2F)n1
TESTED SYSTEM: Candida albicans
GROUP LABEL: yes

Request: Is it the case that COc1nc(OC)nc(Sc2ccc(C#N)cc2Br)n1 has inhibition reaching or exceeding 50%?
Response: yes

Request: Please check the record COc1nc(OC)nc(Sc2ccc(Br)cc2C#N)n1 and state if its inhibition is at or above 50%.
Response: yes

Request: Determine whether this compound has inhibition no lower than 50%: COc1cc(OC)nc(Sc2ccc(Br)cc2C(=O)O)n1
Response: yes

Request: Determine whether measured inhibition meets or exceeds 50% for COc1nc(OC)nc(Sc2cccc(Cl)c2C#N)n1
Response: yes

Request: Item COc1nc(OC)nc(Sc2ccc(Br)cc2C(=O)O)n1 with inhibition of 50% or above?
Response: yes
